Give measured Percent Effect for each item. Keep answers brief.
test system: Leishmania donovani; assay: Leishmania intramacrophage assay; type: functional, organism-based; set-up: scale not given: in the data most compounds retested in dose-response had high values; settings: 30.3 µM; […]
The campaign covered roughly 69,000 compounds. About 1,000 (1.4%) showed an effect of 50% or more. What follows is part of a selection rich in strong results, with near analogues and random picks from the rest.
Note: a bare number is incomplete; add the unit.

These solved cases illustrate the format of a correct answer.
CC(C)C(C)(C#N)NC(=O)Cn1cc(C(N)=O)c(-c2ccccc2)n1 (stereo unspecified)    -11.84%
O=C(c1ccoc1)N(Cc1cccnc1)C1CC1    22.13%
Cc1c(C(=O)O)cnn1-c1ccc(-c2nc(C3CC3)no2)cn1    11.33%

Go through the list and state Percent Effect for each entry.
1. CC(=O)NCC(=O)N1CCN(CCN(C)C)c2ncccc2C1.O=C(O)C(F)(F)F.O=C(O)C(F)(F)F
2. O=C(c1ccoc1)N(Cc1ccncc1)C1CC1
3. Cc1nn(C)cc1CN(C)C(=O)c1cnccn1
4. NS(=O)(=O)CCNC(=O)c1cc(Br)c2c(c1)OCCO2
5. O=C(c1ccc[nH]1)N1CCc2cc(S(=O)(=O)N3CCOCC3)ccc2C1
6. O=C(c1cc[nH]n1)N1CCc2ccc(S(=O)(=O)N3CCOCC3)cc2C1

Result block:
1. 27.08%
2. 53.31%
3. -25.04%
4. -2.46%
5. 17.1%
6. 52.38%

Go through the list and state Percent Effect for each entry.
1. Cc1nc(CN2CC[C@H]3[C@@H]2CCC(=O)N3c2cnn(C)c2)cs1.O=C(O)C(F)(F)F
2. CCc1nncn1CCNC(=O)Nc1ccc(OC)c(C)c1

Result block:
1. 2.736%
2. 5.132%

----------
test system: Leishmania donovani; assay: Leishmania intramacrophage assay; assay type: functional, organism-based; design: scale not given: in the data most compounds retested in dose-response had high values; details: 30 µM
Hit rate of the full screen: of about 69,000 compounds, about 1,000 (1.4%) showed an effect of 50% or more. For the sample, strong results were picked, then their nearest neighbours and some compounds at random.
measure: Percent Effect (%)
Give bare numbers, in %.

These solved cases illustrate the format of a correct answer.
Cc1cnn(CCNCc2ccc(OCc3cccnc3)cc2)c1    27.42
Cc1cc(C(=O)NCc2ccnc(N3CCN(C)CC3)c2)no1    35.55
Cc1nc(C2CCCN2CCCS(N)(=O)=O)no1 (centres undefined)    6.42

Go through the list and state Percent Effect for each entry.
1. Cc1nc(CN2CCN(C(=O)NC(C)Cn3ccnc3)CC2)cs1 (centres undefined)
2. COc1c(C2CCCN2C(=O)CCNc2ncccn2)c(C)nn1C (centres undefined)
3. Cc1cc(C)n(CC2CN(Cc3cc(C)on3)CCO2)n1 (centres undefined)
4. CCOC(=O)c1ccc(S(=O)(=O)NCc2cccnc2N(C)C)cc1
5. c1ccc(COc2cccc(CNC3CCc4ncnn4C3)c2)cc1 (centres undefined)

Result block:
[14.72, 5.312, 28.82, 21.62, -0.9201]

Go through the list and state Percent Effect for each entry.
1. CC1CN(C)CCN1C(=O)c1ccn(-c2cccc(F)c2)n1 (centres undefined)
2. CCc1nnc2n1CCN(CC(O)c1ccc3c(c1)OCCO3)C2 (centres undefined)
3. CN(C)c1ncccc1CNS(=O)(=O)c1cc(F)cc(F)c1
4. CC(O)CN1CCC(CNCc2ccc(OC(F)(F)F)cc2)CC1 (centres undefined)
5. CCOCC(O)CN1CCN(C(=O)c2ccc(C)nc2)CC1 (centres undefined)
6. CCOc1c(Cl)cc(/C=C/c2ncc(C(=O)O)s2)cc1OC
7. COc1ccc(OCC(=O)NS(=O)(=O)c2ccc(Br)s2)cc1

Result block:
1: 3.559; 2: -7.197; 3: 13.05; 4: 89.6; 5: 29.83; 6: 26.63; 7: -22.07

----------
tested on: Leishmania donovani; assay: Leishmania intramacrophage assay; type: functional, organism-based; parameters: scale not given: in the data most compounds retested in dose-response had high values; conditions: 30.3 µM; […]
About 1,000 (1.4%) of roughly 69,000 compounds showed an effect of 50% or more. This excerpt belongs to a sample that is enriched for strong results.
Give measured Percent Effect for each item. Keep answers brief.
Give bare numbers, in %.

These solved cases illustrate the format of a correct answer.
Cc1cc2occ(CC(=O)N3CCC(O)(CN(C)C)C3)c2cc1Cl (configuration not stated)    50.58
CC(C)NC(=O)c1ccc2nnc(C3CCN(S(C)(=O)=O)C3)n2c1 (configuration not stated)    33.79

Go through the list and state Percent Effect for each entry.
1. Cc1cc(C2CCC2)nc(NCC(C)(C)N2CCOCC2)n1
2. OCc1c(Cl)ncn1-c1ccc(F)cc1
3. Cc1cc2occ(CC(=O)N3CCC4(CCCN(C)C4=O)C3)c2cc1Cl (configuration not stated)
4. COc1ccc(-c2cc(CN)ccc2F)c(OC)c1OC

Result block:
1: 23.38; 2: 25.45; 3: 10.63; 4: -7.273

----------
tested on: Leishmania donovani; experiment: Leishmania intramacrophage assay; assay type: functional, organism-based; set-up: scale not given: in the data most compounds retested in dose-response had high values; settings: 30.3 µM; […]
About 1,000 (1.4%) of roughly 69,000 compounds showed an effect of 50% or more. Many of the other results were omitted from the sample, so strong results are more common in it than they were.
Each entry gets class 0 if its Percent Effect stays under 20%, and class 1 if its Percent Effect is 20% or above.

CCOC(=O)N1CCN(c2nc(CCN)nc3sc(C)c(C)c23)CC1    class 1
Cc1sc2nc(CCN)nc(N3CC(N4CCCCC4)C3)c2c1C    class 1

Query block: Percent Effect >= 20% for COc1cccc(CN(C)Cc2nc3c(cnn3C)c(=O)[nH]2)c1OC ?
Result block: class 0

Query block: Percent Effect >= 20% for CN(C)CCN1C[C@@H]2CN(C(=O)C3CCOC3)C[C@@H]2C1=O.O=C(O)C(F)(F)F (stereo not given in full) ?
Result block: class 0

Query block: Percent Effect >= 20% for NC(=O)c1ccc(N2CCCCC2)c(NC(=O)c2cc(Br)ccc2Cl)c1 ?
Result block: class 0

----------
tested on: Leishmania donovani; test: Leishmania intramacrophage assay; type: functional, organism-based; parameters: scale not given: in the data most compounds retested in dose-response had high values; conditions: 30.3 µM; […]
The campaign covered roughly 69,000 compounds. About 1,000 (1.4%) showed an effect of 50% or more. The sample holds strong results, similar compounds and a random draw of the others, so the mix is not that of the screen.
Each entry gets class 0 if its Percent Effect stays under 20%, and class 1 if its Percent Effect is 20% or above.

Cc1cc(C)cc(-n2ncc3c2CCCC3N)c1 (stereo not given)    class 1
CCOc1ncnc2c1CCN(Cc1csc(C)n1)CC2.O=C(O)C(F)(F)F    class 1
O=C(O)C(F)(F)F.c1ccc(C[C@H]2CN(C3CCOCC3)CC[C@H]2OCC2CC2)cc1    class 0
Cn1nc(COc2cccnc2)c2c1CCN(Cc1ccco1)C2.O=C(O)C(F)(F)F.O=C(O)C(F)(F)F    class 0
CCNC(=O)CN(CC)S(=O)(=O)c1c(Br)cc2[nH]c(=O)oc2c1Cl    class 1

Query block: Percent Effect >= 20% for Cn1nc(C(=O)NCc2cccs2)c2c1CCS(=O)(=O)C2 ?
Result block: class 1

Query block: Percent Effect >= 20% for Cn1nc(COc2cccnc2)c2c1CCN(CC1CC1)C2.O=C(O)C(F)(F)F.O=C(O)C(F)(F)F ?
Result block: class 1

Query block: Percent Effect >= 20% for COCCN1CCc2c(c(COc3cccnc3)nn2C)C1.O=C(O)C(F)(F)F.O=C(O)C(F)(F)F ?
Result block: class 1

Query block: Percent Effect >= 20% for Cc1ccc(-n2ncc(C(=O)N(C)C3CCN(C)CC3)c2N)cc1C ?
Result block: class 0

Query block: Percent Effect >= 20% for COC(=O)C(C)CN(C)S(=O)(=O)c1c(Br)cc2[nH]c(=O)oc2c1Cl (stereo not given) ?
Result block: class 1

----------
Give measured Percent Effect for each item. Keep answers brief.
test system: Leishmania donovani; experiment: Leishmania intramacrophage assay; assay type: functional, organism-based; design: scale not given: in the data most compounds retested in dose-response had high values; details: 30.3 µM; […]
Screen size: about 69,000 compounds; about 1,000 (1.4%) showed an effect of 50% or more. For the sample, strong results were picked, then their nearest neighbours and some compounds at random.

These solved cases illustrate the format of a correct answer.
Cc1cc(C(=O)NCc2cccnc2N2CCCC(O)C2)c(C)o1 (stereo unspecified)    26.29%
Cc1ccc(CN2CCN(CC(=O)N(C)C)[C@@H]3CS(=O)(=O)C[C@@H]32)cc1C    18.74%
CCn1cc(CN(C)S(=O)(=O)c2ccccc2)cn1    11.15%
CCC(Nc1nc(CCN)nc2ccccc12)c1cccs1 (stereo unspecified)    67.47%

Go through the list and state Percent Effect for each entry.
1. CCC(Nc1nc(CCN)nc2ccccc12)c1cc(C)ccn1 (stereo unspecified)
2. NCCc1nc(N[C@@H](CO)c2ccccc2)c2ccccc2n1

Result block:
1: 19.32%; 2: 7.922%
